Values from the NIST ThermoML archive (doi:10.1016/j.jct.2006.01.009)

CONDITION_NOTES: 308.15 K; 101 kPa; Liquid
PARAMETER_MEASURED: mass density (kg/m3)
API: value field is a number in kg/m3; no unit string.

The recorded mass density for `CC(=O)c1ccc(C)cc1` is 996.3

The recorded mass density for `CCC(=O)c1ccccc1` is 1000.6

The recorded mass density for `CC(=O)c1ccccc1` is 1020
